This collection of values is drawn from ChEMBL document CHEMBL4837181.

- TARGET_ENTITY: OAT3 (Homo sapiens, UniProt Q8TCC7)
- Sequence (Q8TCC7 whole entry, looked up): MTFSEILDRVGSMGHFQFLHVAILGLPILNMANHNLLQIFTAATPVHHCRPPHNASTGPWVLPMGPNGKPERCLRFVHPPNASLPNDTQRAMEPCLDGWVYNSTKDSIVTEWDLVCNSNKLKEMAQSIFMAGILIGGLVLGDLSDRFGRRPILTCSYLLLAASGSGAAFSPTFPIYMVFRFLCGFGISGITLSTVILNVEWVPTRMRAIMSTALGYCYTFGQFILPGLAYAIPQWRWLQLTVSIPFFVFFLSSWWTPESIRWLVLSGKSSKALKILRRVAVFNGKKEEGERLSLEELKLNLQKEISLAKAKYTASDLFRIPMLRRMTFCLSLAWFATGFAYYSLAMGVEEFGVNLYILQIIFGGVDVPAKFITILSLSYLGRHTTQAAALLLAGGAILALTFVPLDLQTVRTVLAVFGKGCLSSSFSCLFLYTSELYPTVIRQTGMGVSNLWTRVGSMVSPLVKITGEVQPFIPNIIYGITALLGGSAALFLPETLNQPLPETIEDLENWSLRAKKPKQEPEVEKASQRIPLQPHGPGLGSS
- PROTOCOL_TEXT: Inhibition of OAT3 (unknown origin) expressed in HEK293 cells
pIC50: −log10 of the molar value.
PARAMETER_MEASURED: pIC50

The recorded pIC50 with OAT3 (Homo sapiens, UniProt Q8TCC7) for CCOC(=O)[C@@H](Cc1cn(C)c2ccccc12)NC(=O)[C@@H](N)CC(C)C.Cl was < 4.30

====

- PROTOCOL_TEXT: Chemical stability of compound in saline assessed as compound remaining at 5 uM measured after 24 hrs by LC-MS/MS analysis
- Format: physicochemical
- CONDITION_NOTES: read-out: Stabilty
Where a SMILES comes first, the peptide text is derived from it. [ ]: non-standard residue; d: D form. dTrp(1-Me) = Cn1cc(C[C@@H](N)C(=O)O)c2ccccc21
PARAMETER_MEASURED: remaining at 24 h, 5 µM (%)
Numbers only, in %.

compound=Cl.Cn1cc(C[C@@H](N)C(=O)OCC2CCNCC2)c2ccccc21 reading=23
compound="Cl.Cn1cc(C[C@@H](NC(=O)CN)C(=O)O)c2ccccc21 (H-Gly-[dTrp(1-Me)]-OH)" reading=99
compound=Cl.Cn1cc(C[C@@H](NC(=O)[C@@H](N)Cc2ccccc2)C(=O)O)c2ccccc21 reading=92

Hey, can you go through the list below and give me remaining at 24 h, 5 µM for every item?
1. Cl.Cn1cc(C[C@@H](N)C(=O)OCCC2CCOCC2)c2ccccc21
2. Cl.Cn1cc(C[C@@H](NC(=O)[C@@H](N)CCCCN)C(=O)O)c2ccccc21
3. Cl.Cn1cc(C[C@@H](NC(=O)[C@@H](N)Cc2c[nH]c3ccccc23)C(=O)O)c2ccccc21
4. CC(C)C(NC(=O)[C@H](N)Cc1cn(C)c2ccccc12)C(=O)O.Cl (single isomer, unassigned)
5. CCOC(=O)[C@H](N)Cc1cn(C)c2ccccc12.Cl
6. Cl.Cn1cc(C[C@@H](N)C(=O)OCCC2CCNCC2)c2ccccc21
7. Cl.Cn1cc(C[C@@H](NC(=O)[C@@H](N)CCC(=O)O)C(=O)O)c2ccccc21
8. Cl.Cn1cc(C[C@@H](N)C(=O)OCC(O)CO)c2ccccc21 (stereo not given in full)

Marked response:
[76, 100, 61, 98, 100, 46, 91, 99]

Hey, can you go through the list below and give me remaining at 24 h, 5 µM for every item?
1. CC[C@H](C)[C@H](N)C(=O)N[C@H](Cc1cn(C)c2ccccc12)C(=O)O.Cl
2. C[C@H](N)C(=O)N[C@H](Cc1cn(C)c2ccccc12)C(=O)O.Cl
3. Cl.Cn1cc(C[C@@H](NC(=O)[C@H](N)Cc2c[nH]c3ccccc23)C(=O)O)c2ccccc21
4. Cl.Cn1cc(C[C@@H](N)C(=O)N[C@H](Cc2cn(C)c3ccccc23)C(=O)O)c2ccccc21

Marked response:
1. 98
2. 40
3. 87
4. 91
